Value source: patent US10941157B2

- System: Phytophthora capsici (Pc)
- method: In vitro pathogen growth inhibition assay, Pc
- Type: cell-based
- assay-context: 48 h, ≥90% inhibition, 48 hours vs 2% DMSO control, read-out: Compound Concentration (ppm) sufficient for ≥90% inhibition of growth, Pc
- Description: A growth inhibition assay was conducted to determine the ability of compounds to control the growth of fungal pathogens, such as Botrtyis cinerea (Bc), Collectotrichum graminicola (Cg), Diplodia maydis (Dm), Fusarium moniliforme (Fm), Fusarium virguliforme (Fv), Phytophthora capsici (Pc), Rhizoctonia solani (Rs), and Septoria tritici (St). […] Plate readings were repeated at both 24 and 48 hours. […]
The following compounds are shown together with reported IC90 values.

COc1ccc(F)cc1[C@H](Cn1c(=O)n(C(C)(C)C(=O)N2CCCC2)c(=O)c2c(C)c(-n3nccn3)sc21)OC[C@H](C)O : 50 µg/mL
COc1ccc(F)cc1[C@H](Cn1c(=O)n(CCS(N)(=O)=O)c(=O)c2c(C)c(-c3ncco3)sc21)OC1CCOCC1 : > 50 µg/mL
COc1ccc(F)cc1[C@H](Cn1c(=O)n(C(C)(C)C(=O)NC2CCCCC2)c(=O)c2c(C)c(-n3nccn3)sc21)OC1CCOCC1 : > 50 µg/mL
COc1ccc(F)cc1[C@H](Cn1c(=O)n(C(C)C(=O)N2CCCC2)c(=O)c2c(C)c(-n3nccn3)sc21)OC(C)C (stereo partly drawn) : 30 µg/mL
COc1ccccc1[C@H](Cn1c(=O)n(C(C)(C)C(=O)N2CCOCC2)c(=O)c2c(C)c(-c3ncco3)sc21)OC1CCOCC1 : > 50 µg/mL

Next:
// lookup IC90 for "COc1ccc(F)cc1[C@H](Cn1c(=O)n(C(C)(C)C(=O)NC(C)C)c(=O)c2c(C)c(-n3nccn3)sc21)OCCO" ≥ 2 µg/mL

====

- System: Collectotrichum graminicola (Cg)
- method: In vitro pathogen growth inhibition assay, Cg
- Assay type: cell-based
- assay-context: 48 h, concentration sufficient to ≥90% inhibition of growth; 48 hours vs 2% DMSO control; read-out: Compound Concentration (ppm) for ≥90% inhibition, Cg
assay-metric: IC90

COc1ccc(F)cc1[C@H](Cn1c(=O)n(C(C)(C)C(=O)NC(C)C)c(=O)c2c(C)c(-n3nccn3)sc21)OC(=O)CO [Compound I-309] : > 50 µg/mL
CCOC(=O)c1sc2c(c1C)c(=O)n([C@H](C)C(N)=O)c(=O)n2C[C@H](OCCC#N)c1cc(F)ccc1OC [Compound I-228] : > 50 µg/mL

// lookup IC90 for CCNC(=O)C(C)(C)n1c(=O)c2c(C)c(C(=O)OCC)sc2n(C[C@H](OC2CCOCC2)c2ccccc2OC)c1=O [Compound I-175] 50 µg/mL

====

- Tested on: Rhizoctonia solani (Rs)
- method: In vitro pathogen growth inhibition assay, Rs (mycelial plugs)
- Format: cell-based
- assay-context: Rhizoctonia solani, 48 h, ≥90% growth inhibition; mycelial plugs; 48 hours; vs 2% DMSO control; read-out: Compound Concentration (ppm) sufficient for ≥90% inhibition of Rs
assay-metric: IC90 (µg/mL)
Give a bare numeral; the unit µg/mL is implied.

COc1ccc(F)cc1[C@H](Cn1c(=O)n(C(C)(C)C(=O)NC(C)C)c(=O)c2c(C)c(-n3nccn3)sc21)O[C@H]1CC[C@@H](O)CC1 : 0.08

Next:
// lookup IC90 for "CCOC(=O)c1sc2c(c1C)c(=O)n(C(C)(C)C(=O)NC(C)C)c(=O)n2C[C@H](OC[C@@H](C)C#N)c1cc(F)ccc1OC" 0.08
